Listed here: items and their measured pKi.
Target: E. coli LpxC C63A (Escherichia coli, UniProt P0A725, C63A)
Sequence (P0A725 whole entry C63A): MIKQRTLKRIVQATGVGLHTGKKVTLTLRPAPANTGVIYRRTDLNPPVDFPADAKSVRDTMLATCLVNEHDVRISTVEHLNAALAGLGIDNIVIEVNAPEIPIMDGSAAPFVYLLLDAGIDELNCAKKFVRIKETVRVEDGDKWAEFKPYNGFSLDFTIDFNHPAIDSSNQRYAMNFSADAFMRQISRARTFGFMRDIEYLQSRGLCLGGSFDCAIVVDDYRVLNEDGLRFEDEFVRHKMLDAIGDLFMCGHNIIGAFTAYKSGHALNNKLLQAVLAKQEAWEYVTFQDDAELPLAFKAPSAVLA
Assay: fluorescence-based E. coli LpxC C63A enzyme inhibition assay
Conditions: Ki E. coli LpxC C63A, from IC50 via Cheng–Prusoff
Procedure: In order to determine the inhibitory activities of the compounds of interest toward E. coli LpxC, a fluorescence-based enzyme assay was deployed, in which the formed deacetylated natural product UDP-3-O-[(R)-3-hydroxymyristoyl]glucosamine (2) is transformed into a fluorescent isoindole with o-phthaldialdehyde and 2-mercaptoethanol.[48],[49] […] The KM of E. coli LpxC C63A was determined experimentally using a mass spectrometry-based LpxC assay (Figure S8, Supporting Information, vide infra). […]
pKi: −log10 of the molar value.
REPORTED_METRIC: pKi

MOLECULE	MEASURED
O=C(NC[C@H](OCc1ccc(C#Cc2ccc(CN3CCOCC3)cc2)cc1)C(=O)NO)c1cnc2ccccc2c1 [(S)-13f]	6.93
O=C(NC[C@H](OCc1ccc(C#Cc2ccc(CN3CCOCC3)cc2)cc1)C(=O)NO)c1ccc2ccccc2n1 [(S)-13e]	6.42
O=C(NC[C@H](OCc1ccc(C#Cc2ccc(CN3CCOCC3)cc2)cc1)C(=O)NO)c1c[nH]c2ccccc12 [(S)-13h]	7.97
O=C(NC[C@@H](OCc1ccc(C#Cc2ccc(CN3CCOCC3)cc2)cc1)C(=O)NO)c1ccccc1 [(R)-13a]	5.59

----------
molecular target: E. coli LpxC C63A (Escherichia coli, UniProt P0A725, C63A); assay: fluorescence-based E. coli LpxC C63A enzyme inhibition assay; settings: Ki E. coli LpxC C63A, from IC50 via Cheng–Prusoff
pKi: −log10 of the molar value.
REPORTED_METRIC: pKi

COMPOUND	SYSTEM_TESTED	REPORTED_METRIC	MEASURED
O=C(NO)[C@H](COCc1ccccc1)OCc1ccc(C#Cc2ccc(CN3CCOCC3)cc2)cc1 [(S)-11a]	E. coli LpxC C63A (Escherichia coli, UniProt P0A725, C63A)	pKi	6.22
O=C(NO)[C@@H](CNCc1ccccc1)OCc1ccc(C#Cc2ccc(CN3CCOCC3)cc2)cc1 [(R)-12a]	E. coli LpxC C63A (Escherichia coli, UniProt P0A725, C63A)	pKi	5.23
O=C(NC[C@H](OCc1ccc(C#Cc2ccc(CN3CCOCC3)cc2)cc1)C(=O)NO)c1cc(-c2ccccc2)[nH]n1 [(S)-13m]	E. coli LpxC C63A (Escherichia coli, UniProt P0A725, C63A)	pKi	7.07
O=C(NC[C@H](OCc1ccc(C#Cc2ccc(CN3CCOCC3)cc2)cc1)C(=O)NO)c1ccc(Oc2ccccc2)cc1 [(S)-13d]	E. coli LpxC C63A (Escherichia coli, UniProt P0A725, C63A)	pKi	6.49
O=C(NO)[C@@H](COCc1ccccc1)OCc1ccc(C#Cc2ccc(CN3CCOCC3)cc2)cc1 [(R)-11a]	E. coli LpxC C63A (Escherichia coli, UniProt P0A725, C63A)	pKi	5.44
Cc1noc(C)c1C(=O)NC[C@H](OCc1ccc(C#Cc2ccc(CN3CCOCC3)cc2)cc1)C(=O)NO [(S)-13n]	E. coli LpxC C63A (Escherichia coli, UniProt P0A725, C63A)	pKi	6.90
O=C(NC[C@H](OCc1ccc(C#Cc2ccc(CN3CCOCC3)cc2)cc1)C(=O)NO)c1ccc[nH]1 [(S)-13k]	E. coli LpxC C63A (Escherichia coli, UniProt P0A725, C63A)	pKi	7.01
O=C(NC[C@H](OCc1ccc(C#Cc2ccc(CN3CCOCC3)cc2)cc1)C(=O)NO)c1cc2ccccc2[nH]1 [(S)-13g]	E. coli LpxC C63A (Escherichia coli, UniProt P0A725, C63A)	pKi	7.06
O=C(NC[C@@H](OCc1ccc(C#Cc2ccc(CN3CCOCC3)cc2)cc1)C(=O)NO)c1c[nH]c2ccccc12 [(R)-13h]	E. coli LpxC C63A (Escherichia coli, UniProt P0A725, C63A)	pKi	5.80

----------
Biological target: E. coli LpxC C63A (Escherichia coli, UniProt P0A725, C63A)
Experiment: fluorescence-based E. coli LpxC C63A enzyme inhibition assay
Conditions: Ki E. coli LpxC C63A, from IC50 via Cheng–Prusoff
Protocol: In order to determine the inhibitory activities of the compounds of interest toward E. coli LpxC, a fluorescence-based enzyme assay was deployed, in which the formed deacetylated natural product UDP-3-O-[(R)-3-hydroxymyristoyl]glucosamine (2) is transformed into a fluorescent isoindole with o-phthaldialdehyde and 2-mercaptoethanol.[48],[49] […] The KM of E. coli LpxC C63A was determined experimentally using a mass spectrometry-based LpxC assay (Figure S8, Supporting Information, vide infra). […]
pKi: −log10 of the molar value.
REPORTED_METRIC: pKi

COMPOUND	REPORTED_METRIC	MEASURED
O=C(NC[C@H](OCc1ccc(C#Cc2ccc(CN3CCOCC3)cc2)cc1)C(=O)NO)c1cccc2[nH]ccc12 [(S)-13i]	pKi	7.82
O=C(NO)[C@H](CNCc1ccccc1)OCc1ccc(C#Cc2ccc(CN3CCOCC3)cc2)cc1 [(S)-12a]	pKi	5.34
O=C(NC[C@H](OCc1ccc(C#Cc2ccc(CN3CCOCC3)cc2)cc1)C(=O)NO)c1cc[nH]n1 [(S)-13l]	pKi	7.09
O=C(NC[C@@H](OCc1ccc(C#Cc2ccc(CN3CCOCC3)cc2)cc1)C(=O)NO)c1ccc2[nH]ccc2c1 [(R)-13j]	pKi	5.94

----------
tested on: K. pneumoniae ATCC 700603; experiment: disc diffusion assay; type: cell-based, Klebsiella pneumoniae; conditions: 0.15 μmol per 6 mm disc
REPORTED_METRIC: Inhibition zone K. pneumoniae ATCC 700603

COMPOUND	MEASURED
O=C(NC[C@H](OCc1ccc(C#Cc2ccc(CN3CCOCC3)cc2)cc1)C(=O)NO)c1ccc(Oc2ccccc2)cc1 [(S)-13d]	<6 mm
O=C(NC[C@H](OCc1ccc(C#Cc2ccc(CN3CCOCC3)cc2)cc1)C(=O)NO)c1cc(-c2ccccc2)[nH]n1 [(S)-13m]	<6 mm
O=C(NC[C@H](OCc1ccc(C#Cc2ccc(CN3CCOCC3)cc2)cc1)C(=O)NO)c1ccc2[nH]ccc2c1 [(S)-13j]	8.0 ± 1.7 mm
O=C(NC[C@H](OCc1ccc(C#Cc2ccc(CN3CCOCC3)cc2)cc1)C(=O)NO)c1cnc2ccccc2c1 [(S)-13f]	<6 mm
O=C(NC[C@H](OCc1ccc(C#Cc2ccc(CN3CCOCC3)cc2)cc1)C(=O)NO)c1ccc(-c2ccccc2)cc1 [(S)-13b]	<6 mm
O=C(NC[C@H](OCc1ccc(C#Cc2ccc(CN3CCOCC3)cc2)cc1)C(=O)NO)c1c[nH]c2ccccc12 [(S)-13h]	6.7 ± 1.2 mm
O=C(NC[C@H](OCc1ccc(C#Cc2ccc(CN3CCOCC3)cc2)cc1)C(=O)NO)c1ccc2ccccc2n1 [(S)-13e]	<6 mm

----------
assay: log D7.4, HPLC-based method; format: physicochemical; details: pH 7.4, HPLC-based; read-out: logD7.4
REPORTED_METRIC: chromatographic logD

COMPOUND	REPORTED_METRIC	MEASURED
O=C(NC[C@H](OCc1ccc(C#Cc2ccc(CN3CCOCC3)cc2)cc1)C(=O)NO)c1ccc2[nH]ccc2c1 [(S)-13j]	chromatographic logD	3.33
O=C(NC[C@H](OCc1ccc(C#Cc2ccc(CN3CCOCC3)cc2)cc1)C(=O)NO)c1cc[nH]n1 [(S)-13l]	chromatographic logD	2.43
O=C(NC[C@H](OCc1ccc(C#Cc2ccc(CN3CCOCC3)cc2)cc1)C(=O)NO)c1c[nH]c2ccccc12 [(S)-13h]	chromatographic logD	3.63

----------
Listed here: items and their measured half-life.
experiment: microsomal metabolic stability, human; assay type: in vitro ADME; settings: human liver microsomes; read-out: microsomal metabolic stability t1/2

MOLECULE	half-life
O=C(NC[C@H](OCc1ccc(C#Cc2ccc(CN3CCOCC3)cc2)cc1)C(=O)NO)c1cc[nH]n1 [(S)-13l]	> 1 h
O=C(NC[C@H](OCc1ccc(C#Cc2ccc(CN3CCOCC3)cc2)cc1)C(=O)NO)c1ccc2[nH]ccc2c1 [(S)-13j]	> 1 h
O=C(NC[C@H](OCc1ccc(C#Cc2ccc(CN3CCOCC3)cc2)cc1)C(=O)NO)c1c[nH]c2ccccc12 [(S)-13h]	> 1 h

----------
Listed here: items and their measured Inhibition zone K. pneumoniae ATCC 700603.
System: K. pneumoniae ATCC 700603
Assay: disc diffusion assay
Assay type: cell-based, Klebsiella pneumoniae
Conditions: 0.15 μmol per 6 mm disc
Protocol: In the performed disc diffusion assays, indole derivatives (S)-13h, (S)-13i, and (S)-13j caused promising halos of growth inhibition. […]
REPORTED_METRIC: Inhibition zone K. pneumoniae ATCC 700603 (mm)

COMPOUND	MEASURED
O=C(NC[C@H](OCc1ccc(C#Cc2ccc(CN3CCOCC3)cc2)cc1)C(=O)NO)c1cccc2[nH]ccc12 [(S)-13i]	7.3
O=C(NC[C@H](OCc1ccc(C#Cc2ccc(CN3CCOCC3)cc2)cc1)C(=O)NO)c1cc[nH]n1 [(S)-13l]	11.5
Cc1noc(C)c1C(=O)NC[C@H](OCc1ccc(C#Cc2ccc(CN3CCOCC3)cc2)cc1)C(=O)NO [(S)-13n]	7.0
O=C(NC[C@H](OCc1ccc(C#Cc2ccc(CN3CCOCC3)cc2)cc1)C(=O)NO)c1ccccc1 [(S)-13a]	7.0
O=C(NC[C@H](OCc1ccc(C#Cc2ccc(CN3CCOCC3)cc2)cc1)C(=O)NO)c1ccc[nH]1 [(S)-13k]	9.5
